Target: Estrogen receptor (Homo sapiens) (UniProt P03372)
Sequence (P03372 whole entry, looked up): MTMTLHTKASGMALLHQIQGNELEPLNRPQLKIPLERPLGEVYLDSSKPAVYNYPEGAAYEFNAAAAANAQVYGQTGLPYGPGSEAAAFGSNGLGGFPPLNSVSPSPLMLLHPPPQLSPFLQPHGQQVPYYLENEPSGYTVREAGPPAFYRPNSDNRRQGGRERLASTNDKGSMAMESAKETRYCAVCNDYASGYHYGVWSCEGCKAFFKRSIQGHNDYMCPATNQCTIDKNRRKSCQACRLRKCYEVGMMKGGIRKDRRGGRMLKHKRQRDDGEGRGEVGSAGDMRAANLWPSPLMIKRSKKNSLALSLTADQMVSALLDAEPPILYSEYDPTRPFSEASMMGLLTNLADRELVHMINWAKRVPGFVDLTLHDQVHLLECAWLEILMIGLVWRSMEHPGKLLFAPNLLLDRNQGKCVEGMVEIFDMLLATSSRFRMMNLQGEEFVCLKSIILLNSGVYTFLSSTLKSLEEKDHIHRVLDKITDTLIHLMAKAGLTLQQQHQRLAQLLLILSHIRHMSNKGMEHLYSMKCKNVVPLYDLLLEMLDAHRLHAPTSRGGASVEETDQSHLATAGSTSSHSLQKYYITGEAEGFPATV
Experiment: qHTS assay to identify small molecule antagonists of the estrogen receptor alpha (ER-alpha) signaling pathway (AID 743069)
Settings: HEK293 ER-alpha-UAS-bla, beta-lactamase ratio, antagonist mode; series mostly up to 69.4 µM
From the text: National Center for Advancing Translational Sciences [NCATS] NIH Chemical Genomics Center [NCGC] U.S. Environmental Protection Agency [EPA] National Institutes of Environmental Health Sciences [NIEHS] National Toxicology Program [NTP] U.S. Food and Drug Administration [FDA] Estrogen receptor (ER), a nuclear hormone receptor, plays an important role in development, metabolic homeostasis and reproduction. […]
Records with an inconclusive call do not appear. Calls of active or inactive are those of the source. Calls follow the shape of the dose curve; as a rule, active = well fitted curve in the direction sought with a large enough effect in the signal ratio in the repeat runs (not every such curve was filed as active); inconclusive = weak or mixed curves, or effect the other way; inactive = no such curve, though single readings can be large or run the other way; the % refers to the signal ratio.
Mark one answer only. Choices: Y for active, N for inactive

Ask | What did this assay record as the result for `Cn1cnc2ncnc(N)c21` ?
Reply | N

Ask | What did this assay record as the result for `CO[C@H]1C=CO[C@@]2(C)Oc3c(C)c(O)c4c(O)c(cc(O)c4c3C2=O)NC(=O)/C(C)=C\C=C/[C@H](C)[C@H](O)[C@@H](C)[C@@H](O)[C@@H](C)[C@H](OC(C)=O)[C@@H]1C` ?
Reply | N

Ask | What did this assay record as the result for `C=C(c1ccc(C(=O)O)cc1)c1cc2c(cc1C)C(C)(C)CCC2(C)C` ?
Reply | Y

---

Molecular target: Peroxisome proliferator-activated receptor delta (Homo sapiens)
Assay: qHTS assay to identify small molecule antagonists of the peroxisome proliferator-activated receptor delta (PPARd) signaling pathway (AID 743215);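 also: cells stimulated with agonist L165041 at 300 nM final during compound exposure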
Conditions: HEK293H PPARd-UAS-bla, beta-lactamase FRET ratio, antagonist, 17 h; series mostly up to 62 µM
Inconclusive results are not listed. Active and inactive are the calls of the source. Calls follow the shape of the dose curve; as a rule, active = well fitted inhibition curve with a large enough effect in the signal ratio in the repeat runs (not every such curve was filed as active); inconclusive = weak or mixed curves, or effect the other way; inactive = no such curve, though single readings can be large or run the other way; the % refers to the signal ratio.
Mark one answer only. Choices: active, inactive

Observe how each entry below is paired with its result.
Cc1cn[nH]c1
inactive
CCCCN(CCCC)CCC(O)c1cc2c(Cl)cc(Cl)cc2c2cc(C(F)(F)F)ccc12 (stereo unspecified)
inactive
CCc1cccc(C)c1
inactive
c1cc2c3c(c1)ccc1cccc(c13)C2
inactive
C[C@]12CC[C@H]3C(=CCc4cc(O)ccc43)[C@@H]1CCC2=O
inactive

Ask | What did this assay record as the result for CCN(CC)CCOc1ccc(C(O)(Cc2ccc(Cl)cc2)c2ccc(C)cc2)cc1 (stereo unspecified) ?
Reply | active

---

Assay: A CellTox Green Cytotoxicity Assay to monitor cytotoxicity in HEK293 cells - 16 hour (AID 1224888); also: nearly all actives have a fitted effect of over 35% in size
Settings: CellTox Green fluorescence; series mostly up to 76.8 µM
Results filed as inconclusive are left out. Calls of active or inactive are those of the source. Calls follow the shape of the dose curve; as a rule, active = well fitted activation curve with a large enough effect in the repeat runs; inconclusive = weak or mixed curves; inactive = flat fitted curve, though single readings scatter.
Mark one answer only. Choices: 1 for active, 0 for inactive

Observe how each entry below is paired with its result.
CCCC(C)CCC(C)=O (centres undefined)
0
CCC(C)c1ccccc1 (centres undefined)
0
CN1[C@@H]2CC[C@@H]1CC(OC(=O)C(CO)c1ccccc1)C2 (some centres undefined)
0

Ask | What did this assay record as the result for `CCc1c(C(=O)O)c(=O)cnn1-c1ccc(Cl)cc1` ?
Reply | 0

Ask | What did this assay record as the result for `Clc1cccnc1` ?
Reply | 0

Ask | What did this assay record as the result for `Oc1c(Br)cc(Br)c2cccnc12` ?
Reply | 0

Ask | What did this assay record as the result for `CCOC(=O)[C@@](C)(N)Cc1ccc(O)c(O)c1` ?
Reply | 0

Ask | What did this assay record as the result for `C/C=C/C(=O)C1=C(C)CCCC1(C)C` ?
Reply | 0

Ask | What did this assay record as the result for `CCCCCCCC/C=C\CCCCCCCC(=O)N(C)CC(=O)O` ?
Reply | 1

Ask | What did this assay record as the result for `Cn1cccc1` ?
Reply | 0

Ask | What did this assay record as the result for `CCC1CCCCC1` ?
Reply | 0

Ask | What did this assay record as the result for `O=C1c2c(O)ccc([N+](=O)[O-])c2C(=O)c2c([N+](=O)[O-])ccc(O)c21` ?
Reply | 0

Ask | What did this assay record as the result for `O=C1c2c(O)ccc(O)c2C(=O)c2c(NCCNCCO)ccc(NCCNCCO)c21` ?
Reply | 0

Ask | What did this assay record as the result for `CCN(CC)c1cccc(C)c1` ?
Reply | 0

---

Test: qHTS assay to identify small molecule antagonists of the retinoid-related orphan receptor gamma (ROR-gamma) signaling pathway - cell viability counter screen (AID 1159520); also: % is scaled to controls: 0 for no effect and ±100 for the full control effect; nearly all actives have a fitted effect of over 50% in size
Conditions: Tet-on RORgamma CHO cells viability, ATP luminescence, 16 h; series mostly up to 92.4 µM
Results filed as inconclusive are left out. Activity calls are given as the source filed them. The call rests on the fitted dose curve; in most records, active means well fitted cell-killing curve with a large enough effect in the repeat runs; inconclusive means weak or mixed curves, or effect the other way; inactive means no such curve, though single readings can be large or run the other way.
assay_endpoint: outcome

Consider the reported outcome for these molecules:
CCc1ccc(O)c(C(C)(C)C)c1
inactive
Cc1cc(C)c(C=O)c(C)c1
inactive
OCCCS
inactive
CNCC[C@H](Oc1cccc2ccccc12)c1cccs1
inactive
CC1CCCCC1
inactive

Ask | Any idea what outcome was measured for `C[Si](C)O[Si](C)C` ?
Reply | inactive

Ask | Any idea what outcome was measured for CCCCOC(=O)C(C)CC (stereo not drawn) ?
Reply | inactive

Ask | Any idea what outcome was measured for `NCCCCCCNCCCCCCN` ?
Reply | inactive

---

Assay: qHTS assay to identify small molecule antagonists of the glucocorticoid receptor (GR) signaling pathway - cell viability counter screen (AID 720693); also: nearly all actives have a fitted effect of over 55% in size
Settings: GR-bla HeLa viability, CellTiter-Glo luminescence, 18 h, with 5 nM dexamethasone present; series mostly up to 58.5 µM
Excerpt: National Center for Advancing Translational Sciences [NCATS] NIH Chemical Genomics Center [NCGC] U.S. Environmental Protection Agency [EPA] National Institutes of Environmental Health Sciences [NIEHS] National Toxicology Program [NTP] U.S. Food and Drug Administration [FDA] The Glucocorticoid receptor (GR) is one of the members of the nuclear receptor family of ligand-dependent transcription factors. […] The activation of the reporter gene under culture conditions can be detected by fluorescence intensity. […]
Inconclusive results are not listed. The source made the active and inactive calls. Calls come from the whole dose curve; as a rule, active = well fitted cell-killing curve with a large enough effect in the repeat runs; inconclusive = weak or mixed curves, or effect the other way; inactive = no such curve, though single readings can be large or run the other way.
Mark one answer only. Choices: yes (1) for active, no (0) for inactive

Observe how each entry below is paired with its result.
CN1[C@@H]2CC[C@@H]1CC(OC(=O)C(CO)c1ccccc1)C2 (stereo partly specified)
no (0)
O=C1NCN(c2ccccc2)C12CCN(CCCC(c1ccc(F)cc1)c1ccc(F)cc1)CC2
yes (1)
C(=C/c1ccccc1)/c1ccccc1
no (0)

Ask | What did this assay record as the result for `NCCCC(O)(P(=O)(O)O)P(=O)(O)O` ?
Reply | no (0)

Ask | What did this assay record as the result for `C=C(c1ccc(C(=O)O)cc1)c1cc2c(cc1C)C(C)(C)CCC2(C)C` ?
Reply | yes (1)

Ask | What did this assay record as the result for `Cc1ccc(N)cc1O` ?
Reply | no (0)

---

Assay: qHTS assay for small molecule activators of the heat shock response signaling pathway - cell viability counter screen (AID 743209); also: % is scaled to controls: 0 for no effect and ±100 for the full control effect; nearly all actives have a fitted effect of over 50% in size
Details: HSE-bla HeLa viability, CellTiter-Glo luminescence, 5 h; series mostly up to 62.6 µM
Inconclusive results are not listed. Activity calls are given as the source filed them. Calls come from the whole dose curve; as a rule, active = well fitted cell-killing curve with a large enough effect in the repeat runs; inconclusive = weak or mixed curves, or effect the other way; inactive = no such curve, though single readings can be large or run the other way.
Mark one answer only. Choices: active, inactive

CC1(C)C(=O)N(Br)C(=O)N1Br
inactive
CCCCOc1ccc(C(=O)CCN2CCCCC2)cc1
inactive
COC(=O)CC#N
inactive
CC(COC(=O)c1ccccc1)OC(=O)c1ccccc1 (stereo not given)
inactive
O=C(O)CCn1c2c(c3ccccc31)C[C@H](NS(=O)(=O)c1ccc(F)cc1)CC2
inactive

Next:
Ask | What did this assay record as the result for `Oc1c(Br)cc(Br)c2cccnc12` ?
Reply | inactive

---

Biological target: Cytochrome P450 2D6 (Homo sapiens) (UniProt P10635)
Sequence (P10635 whole entry, looked up): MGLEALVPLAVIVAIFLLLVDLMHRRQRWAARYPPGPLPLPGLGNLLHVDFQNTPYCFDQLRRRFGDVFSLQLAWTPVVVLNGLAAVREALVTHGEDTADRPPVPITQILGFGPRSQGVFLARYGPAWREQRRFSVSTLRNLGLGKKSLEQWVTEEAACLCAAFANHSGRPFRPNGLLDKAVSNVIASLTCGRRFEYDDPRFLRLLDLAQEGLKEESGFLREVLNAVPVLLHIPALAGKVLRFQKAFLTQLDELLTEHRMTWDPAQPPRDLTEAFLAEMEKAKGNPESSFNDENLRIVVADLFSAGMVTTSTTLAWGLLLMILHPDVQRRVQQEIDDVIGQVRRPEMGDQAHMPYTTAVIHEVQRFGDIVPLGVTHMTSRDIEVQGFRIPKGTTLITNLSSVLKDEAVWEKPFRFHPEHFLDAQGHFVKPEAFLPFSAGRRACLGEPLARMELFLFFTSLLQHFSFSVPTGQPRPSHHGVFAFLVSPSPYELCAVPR
Test: Cytochrome P450 Family 2 Subfamily D Member 6 (CYP2D6) small molecule antagonists: luciferase reporter qHTS assay (AID 1671196); also: nearly all actives have a fitted effect of over 50% in size
Details: P450-Glo CYP2D6 enzyme assay, luciferin luminescence, 1 h; series mostly up to 115 µM
Records with an inconclusive call do not appear. Active and inactive are the calls of the source. Calls come from the whole dose curve; as a rule, active = well fitted inhibition curve with a large enough effect in the repeat runs; inconclusive = weak or mixed curves; inactive = no such curve, though single readings can be large or run the other way.
Mark one answer only. Choices: active, inactive

Observe how each entry below is paired with its result.
CCN(CC)CCSC(=O)C(c1ccccc1)c1ccccc1
active
Clc1ccc(C(Cn2ccnc2)OCc2ccsc2Cl)c(Cl)c1 (stereo not drawn)
active
Nc1cc(Cl)c([N+](=O)[O-])cc1O
inactive
C[C@@]12C(=O)OC(=O)[C@]1(C)C1CCC2O1
inactive
Cc1ccc2ccc3cccc4ccc1c2c34
active
CCNc1nc(NC(C)CC)nc(OC)n1 (stereo not drawn)
inactive
SCCCCCCCCS
inactive
C=C(C)CCCC
inactive
CC1=CCC(=O)O1
inactive
CCCCN(CCCC)CCC(O)c1cc2c(Cl)cc(Cl)cc2c2cc(C(F)(F)F)ccc12 (stereo not drawn)
active

Ask | What did this assay record as the result for `Oc1c(Br)cc(Br)c2cccnc12` ?
Reply | inactive

Ask | What did this assay record as the result for `CC(C)(c1cc(Br)c(O)c(Br)c1)c1cc(Br)c(O)c(Br)c1` ?
Reply | inactive

Ask | What did this assay record as the result for `Cc1nc(Nc2ncc(C(=O)Nc3c(C)cccc3Cl)s2)cc(N2CCN(CCO)CC2)n1` ?
Reply | inactive

From: PubChem BioAssay (Tox21)
